- EXPERIMENT: Individual predicted steady‐state exposures
- Type: in vivo, human
- ASSAY CONDITIONS: human, plasma, C max,ss geometric mean (CV), Race: Chinese and Taiwanese
Overview of reported Cmax across a group of molecules:
Numeric answer only, unit ng/mL assumed.

[ask] Could you tell me which Cmax is on file for NC(=O)[C@@H]1CC[C@@H]2CN1C(=O)N2OS(=O)(=O)O ?
[reply] 14700

[ask] Suppose we examine the molecule CC(C)(O/N=C(\C(=O)N[C@@H]1C(=O)N2C(C(=O)[O-])=C(C[n+]3ccccc3)CS[C@H]12)c1csc(N)n1)C(=O)O ; what Cmax value has been reported?
[reply] 77600

====

- EXPERIMENT: Individual predicted steady‐state exposures
- Format: in vivo, human
- ASSAY CONDITIONS: human, plasma, C max,ss geometric mean (CV), Age (years) > 75–89
MEASURE: Cmax (ng/mL)
Report only the number, with the unit ng/mL understood.

{"MOLECULE": "NC(=O)[C@@H]1CC[C@@H]2CN1C(=O)N2OS(=O)(=O)O [Avibactam, avibactam]", "UNIT SYMBOL": "ng/mL", "Cmax": 14000}

[ask] // Cmax lookup, key: CC(C)(O/N=C(\C(=O)N[C@@H]1C(=O)N2C(C(=O)[O-])=C(C[n+]3ccccc3)CS[C@H]12)c1csc(N)n1)C(=O)O [Ceftazidime, ceftazidime]
[reply] 76800

====

- EXPERIMENT: Individual predicted steady‐state exposures
- Format: in vivo, human
- ASSAY CONDITIONS: human, plasma, AUCss,0–24 geometric mean (CV), Fever at baseline: No
MEASURE: AUC (µg·h/mL)
# output: bare number, implied unit µg·h/mL

{"SMILES ENTRY": "NC(=O)[C@@H]1CC[C@@H]2CN1C(=O)N2OS(=O)(=O)O", "UNIT SYMBOL": "µg·h/mL", "AUC": 146}

Let us move to another entry and its AUC.
[ask] Look at this compound and give its reported AUC. CC(C)(O/N=C(\C(=O)N[C@@H]1C(=O)N2C(C(=O)[O-])=C(C[n+]3ccccc3)CS[C@H]12)c1csc(N)n1)C(=O)O
[reply] 888

====

- EXPERIMENT: Individual predicted steady‐state exposures
- Type: in vivo, human
- ASSAY CONDITIONS: human, plasma, intravenous, C max,ss geometric mean (CV), Baseline WBC count (cells/μL) > 12,000
Quick list: Cmax per entry.
Give the quantity in µg/mL, number only.

{"SMILES ENTRY": "NC(=O)[C@@H]1CC[C@@H]2CN1C(=O)N2OS(=O)(=O)O", "Cmax [µg/mL]": 12.5}

[ask] Tell me the measured Cmax of CC(C)(O/N=C(\C(=O)N[C@@H]1C(=O)N2C(C(=O)[O-])=C(C[n+]3ccccc3)CS[C@H]12)c1csc(N)n1)C(=O)O , please.
[reply] 67.6

====

- EXPERIMENT: Individual predicted steady‐state exposures
- Format: in vivo, human
- ASSAY CONDITIONS: human, plasma, intravenous, AUCss,0–24 geometric mean (CV), Asian population: Taiwan
# maps each entry to its AUC

{"MOLECULE": "NC(=O)[C@@H]1CC[C@@H]2CN1C(=O)N2OS(=O)(=O)O [Avibactam, avibactam]", "VALUE": "115 µg·h/mL"}

Now for the molecule whose AUC we want.
[ask] AUC for CC(C)(O/N=C(\C(=O)N[C@@H]1C(=O)N2C(C(=O)[O-])=C(C[n+]3ccccc3)CS[C@H]12)c1csc(N)n1)C(=O)O [Ceftazidime, ceftazidime] ?
[reply] 728 µg·h/mL

====

- EXPERIMENT: Individual predicted steady‐state exposures
- Assay type: in vivo, human
- ASSAY CONDITIONS: human, plasma, intravenous, C max,ss geometric mean (CV), Patient population: Non‐VAP
The following compounds are listed with their measured Cmax values.
Reply with just the number (in ng/mL).

{"SMILES ENTRY": "CC(C)(O/N=C(\\C(=O)N[C@@H]1C(=O)N2C(C(=O)[O-])=C(C[n+]3ccccc3)CS[C@H]12)c1csc(N)n1)C(=O)O", "Cmax (ng/mL)": 79000}

Turning to the following compound.
[ask] Report Cmax for NC(=O)[C@@H]1CC[C@@H]2CN1C(=O)N2OS(=O)(=O)O please.
[reply] 15500

====

- EXPERIMENT: Individual predicted steady‐state exposures
- Assay type: in vivo, human
- ASSAY CONDITIONS: human, plasma, AUCss,0–24 geometric mean (CV), Baseline WBC count Missing
MEASURE: AUC (µg·h/mL)
Respond with the bare value in µg·h/mL.

[ask] AUC lookup needed for NC(=O)[C@@H]1CC[C@@H]2CN1C(=O)N2OS(=O)(=O)O , thanks.
[reply] 147

[ask] Give the measured AUC of CC(C)(O/N=C(\C(=O)N[C@@H]1C(=O)N2C(C(=O)[O-])=C(C[n+]3ccccc3)CS[C@H]12)c1csc(N)n1)C(=O)O .
[reply] 924

====

- EXPERIMENT: Individual predicted steady‐state exposures
- Assay type: in vivo, human
- ASSAY CONDITIONS: human, plasma, intravenous, C max,ss geometric mean (CV), Asian population: Taiwan
MEASURE: Cmax (ng/mL)
Could you give me the number in ng/mL? Just the number is fine.

{"SMILES ENTRY": "CC(C)(O/N=C(\\C(=O)N[C@@H]1C(=O)N2C(C(=O)[O-])=C(C[n+]3ccccc3)CS[C@H]12)c1csc(N)n1)C(=O)O", "VALUE": 59400}

[ask] State the recorded Cmax for this entry: NC(=O)[C@@H]1CC[C@@H]2CN1C(=O)N2OS(=O)(=O)O
[reply] 10200

====

- EXPERIMENT: Final ceftazidime PopPK model
- Format: in vivo, human
- ASSAY CONDITIONS: human, plasma, intravenous, θ1: CL, typical value
MEASURE: clearance (mL/min)
Numeric only. Scale: mL/min

[ask] Quick one: clearance of CC(C)(O/N=C(\C(=O)N[C@@H]1C(=O)N2C(C(=O)[O-])=C(C[n+]3ccccc3)CS[C@H]12)c1csc(N)n1)C(=O)O [Ceftazidime, ceftazidime] ?
[reply] 116

====

- EXPERIMENT: Individual predicted steady‐state exposures
- Type: in vivo, human
- ASSAY CONDITIONS: human, plasma, C max,ss geometric mean (CV), Concomitant use of OAT1/OAT3 inhibitor(s): No
Listed next: entries and their corresponding Cmax.
Number in ng/mL, nothing else.

{"SMILES ENTRY": "NC(=O)[C@@H]1CC[C@@H]2CN1C(=O)N2OS(=O)(=O)O", "VALUE": 12800}

// next item, Cmax requested
[ask] Requested read-out: Cmax. Entry: CC(C)(O/N=C(\C(=O)N[C@@H]1C(=O)N2C(C(=O)[O-])=C(C[n+]3ccccc3)CS[C@H]12)c1csc(N)n1)C(=O)O
[reply] 71700

====

- EXPERIMENT: Individual predicted steady‐state exposures
- Format: in vivo, human
- ASSAY CONDITIONS: human, plasma, AUCss,0–24 geometric mean (CV), Age (years) 18–65
molecules and their reported AUC
State the answer as a number, implicitly in µg·h/mL.

[ask] Which AUC is listed for NC(=O)[C@@H]1CC[C@@H]2CN1C(=O)N2OS(=O)(=O)O [Avibactam, avibactam] ?
[reply] 131

[ask] Would you kindly share the measured AUC for CC(C)(O/N=C(\C(=O)N[C@@H]1C(=O)N2C(C(=O)[O-])=C(C[n+]3ccccc3)CS[C@H]12)c1csc(N)n1)C(=O)O [Ceftazidime, ceftazidime] ?
[reply] 800

====

- EXPERIMENT: Individual predicted steady‐state exposures
- Assay type: in vivo, human
- ASSAY CONDITIONS: human, plasma, AUCss,0–24 geometric mean (CV), Race: Asian (non‐Chinese; non‐Japanese)
Below, each of the compounds is paired with its reported AUC value.
Kindly answer with a numeric value in µg·h/mL, unit omitted.

{"COMPOUND": "CC(C)(O/N=C(\\C(=O)N[C@@H]1C(=O)N2C(C(=O)[O-])=C(C[n+]3ccccc3)CS[C@H]12)c1csc(N)n1)C(=O)O [Ceftazidime, ceftazidime]", "AUC [µg·h/mL]": 968}

Please turn your attention to the following entry.
[ask] Param item = NC(=O)[C@@H]1CC[C@@H]2CN1C(=O)N2OS(=O)(=O)O [Avibactam, avibactam] ; retrieve measured AUC.
[reply] 166

====

- EXPERIMENT: Individual predicted steady‐state exposures
- Format: in vivo, human
- ASSAY CONDITIONS: human, plasma, AUCss,0–24 geometric mean (CV), Age (years) > 75–89
Listing: AUC of selected compounds

{"COMPOUND": "NC(=O)[C@@H]1CC[C@@H]2CN1C(=O)N2OS(=O)(=O)O [Avibactam, avibactam]", "AUC": "180 µg·h/mL"}

Continue with the next compound.
[ask] Which AUC value belongs to CC(C)(O/N=C(\C(=O)N[C@@H]1C(=O)N2C(C(=O)[O-])=C(C[n+]3ccccc3)CS[C@H]12)c1csc(N)n1)C(=O)O [Ceftazidime, ceftazidime] ?
[reply] 1100 µg·h/mL
